# experimental-target: kinases of Table 5 (Homo sapiens, UniProt Q13627)
# method-description: Further analysis of a plurality of inhibitors and a plurality of kinases (Table 5 inhibition results)
# Type: biochemical
# condition-info: kinase DYRK1A (Part I, plate G6, Domain 1); inhibitor 100 uM
quantity-kind: Inhibition Results (Level)

Record excerpt, results attached:
Cn1cc(C2=C(c3cn(CCCSC(=N)N)c4ccccc34)C(=O)NC2=O)c2ccccc21 2
CC(=O)c1c(O)c(C)c(O)c(Cc2c(O)c3c(c(C(=O)/C=C/c4ccccc4)c2O)OC(C)(C)C=C3)c1O 0
N#C/C(=C/c1ccc(O)c(O)c1)C(=O)NCc1ccccc1 2
CC(C)(C)n1nc(-c2ccc(Cl)cc2)c2c(N)ncnc21 1

[a] COc1cc2ncnc(Nc3cccc(Cl)c3)c2cc1OC
[b] O=c1c(-c2ccc(O)cc2)coc2cc(O)cc(O)c12
// pick larger Inhibition Results (Level) from pair: a vs b Field: selected label. Fill in the label of the entry you choose.
b
